assay_explanation: Cytotoxicity against human Raji cells assessed as cell viability at 500 molar ratio
Format: cell-based
experimental_parameters: read-out: Activity
metric_name: viability at 500 molar ratio (%)
Express the result in % but write the number alone.

Look over these answered cases.
smiles_input: CC(C)c1cc(=O)c2c(O)cc(O)c([C@@H]3O[C@H](CO)[C@@H](O)[C@H](O)[C@H]3OC(=O)c3cc(O)c(O)c(O)c3)c2o1
viability at 500 molar ratio / %: 80
//
smiles_input: CC(C)c1cc(=O)c2c(O)c([C@@H]3O[C@H](CO)[C@@H](O)[C@H](O)[C@H]3O)c(O)cc2o1
viability at 500 molar ratio / %: 80

Kindly review the next compound as well.
QUERY: Return viability at 500 molar ratio for the following compound: Cc1c(O)c(Cc2c(O)cc3oc(-c4ccc(O)c(O)c4)c(O[C@@H]4O[C@@H](C)[C@H](O)[C@@H](O)[C@H]4O)c(=O)c3c2O)c2oc(-c3ccc(O)c(O)c3)c(O[C@@H]3O[C@@H](C)[C@H](O)[C@@H](O)[C@H]3O)c(=O)c2c1O
RESULT: 80
